Target or system Cyclin-dependent kinase 12 (Homo sapiens, UniProt Q9NYV4); metric pIC50; compiled from varied reports.
pIC50: −log10 of the molar value.

compound	experimental.endpoint	measured.value
C=CC(=O)NC1CCC(c2ccc(C(C)C(=O)Nc3cc(C4CC4)n[nH]3)cc2)CC1 (single isomer, unassigned)	pIC50	5.99
FC(F)n1cc(-c2cnn3c(NCc4nc5cc(Cl)c(Cl)cc5[nH]4)nc(N4CCOCC4)nc23)cn1	pIC50	6.58
C=CC(=O)Nc1ccc(C(=O)N2CC[C@@H](Nc3cnc(C)cn3)C2)cc1	pIC50	5.00 to 6.00
C#Cc1cnc(N[C@@H]2CCN(c3nccc4cc(NC(=O)C=C)ccc34)C2)nc1	pIC50	≥ 7.00
C=CC(=O)N(C)c1ccc2c(N3CC[C@@H](Nc4ncc(Br)cn4)C3)nc(N3CCN(C)CC3)nc2c1	pIC50	≥ 7.00

Batch lookup, pIC50 per entry.
1. C=CC(=O)Nc1ccc2c(N3CC[C@@H](Nc4ncc(C(F)(F)F)c(NC)n4)C3)ncnc2c1
2. FC(F)n1cc(-c2cnn3c(NCc4nc5cccc(Cl)c5[nH]4)nc(N4CCOCC4)nc23)cn1
3. FC(F)n1cc(-c2cnn3c(NCc4nc5cccc(Cl)c5[nH]4)nc(N4CCC(F)(F)CC4)nc23)cn1
4. CCC(=O)Nc1ccc(C(=O)N2CC[C@@H](Nc3ncc(Cl)c(OCC(F)(F)F)n3)C2)cc1

Completion:
["≥ 7.00", 7.19, 6.26, "6.00 to 7.00"]

// each listed compound needs a value for pIC50
1. C=CC(=O)Nc1ccc2c(N3CC[C@@H](Nc4ncc(Cl)c(C(F)(F)F)n4)C3)ncnc2c1
2. C#CC(=O)N1CCC=C(c2ccc(CC(=O)Nc3cc(C4CC4)[nH]n3)cn2)C1
3. C#Cc1cnc(N[C@@H]2CCN(c3nnc(N4CCC4)c4cc(NC(=O)C=C)ccc34)C2)nn1

Completion:
1: ≥ 7.00; 2: 7.31; 3: ≥ 7.00

====

Here is a set of molecules with reported IC50 for Cyclin-dependent kinase 12 (Homo sapiens), compiled from the literature.

Consider the worked cases shown below.
C=CC(=O)Nc1ccc2c(N3CC[C@@H](Nc4ncc(Br)cn4)C3)nncc2c1 ≤ 100 nM
CC(C)=CC(=O)N1CCC=C(c2ccc(CC(=O)Nc3cc(C4CC4)[nH]n3)cn2)C1 178 nM
C=CC(=O)Nc1ccc(C(=O)N2CC[C@@H](Nc3ncc(Cl)cn3)C2)cc1-c1cnn(C)c1 100 to 1000 nM
C=CC(=O)N1CCC=C(c2ccc([C@H](C)C(=O)Nc3cc(C4CC4)[nH]n3)cc2)C1 189 nM

Hi team, please reply with IC50 for each item in this list.
1. C=CC(=O)Nc1ccc(C(=O)N2CC[C@@H](Nc3ncc(C)c(OC4CC4)n3)C2)cc1
2. Cn1cc(-c2cnn3c(NCc4nc5cc(F)c(F)cc5[nH]4)nc(N4CCOCC4)nc23)cn1

Completion:
100 to 1000 nM
1350 nM

Provide IC50 for all items below, preserving their order.
1. C=CC(=O)N1CCOc2cc(C(=O)N3CC[C@@H](Nc4ncc(Cl)cn4)C3)ccc21
2. C=CC(=O)Nc1ccc(C(=O)N2CC[C@@H](Nc3nccc(-c4cn[nH]c4)n3)C2)cc1

Completion:
1: 100 to 1000 nM; 2: 100 to 1000 nM

====

// compounds with IC50 on Cyclin-dependent kinase 12 (Homo sapiens, UniProt Q9NYV4), multi-source literature

compound	measured.value
N#CN1CC=C(c2ccc(CC(=O)Nc3cc(C4CC4)[nH]n3)cn2)CC1	4 nM

Here are 7 compounds. What values of IC50 were reported for them?
1. C=CC(=O)Nc1ccc(C(=O)N2CC[C@@H](Nc3cnc(Cl)cn3)C2)cc1
2. C=CC(=O)Nc1ccc(C(=O)N2CC[C@@H](Nc3ncc4ccc(S(C)(=O)=O)cc4n3)C2)cc1
3. C=CC(=O)Nc1ccc2c(N3CC[C@@H](Nc4ncc(C#N)cn4)C3)nc(N)nc2c1
4. C=CC(=O)Nc1ccc(C(=O)N2CCC[C@@H](Nc3cnc(Cl)cn3)C2)cc1
5. C=CC(=O)Nc1ccc(C(=O)N2CCC[C@@H](Nc3nccc(OC4CCCC4)n3)C2)cc1
6. Cn1cc(-c2cnn3c(NCc4nc5cc(Cl)c(Cl)cc5[nH]4)nc(N4CCOCC4)nc23)cn1
7. C#Cc1cnc(N[C@@H]2CCN(C(=O)c3ccc(N(C)C(=O)C=C)cc3)C2)nc1

Completion:
1: 100 to 1000 nM; 2: < 100 nM; 3: ≤ 100 nM; 4: 10000 to 30000 nM; 5: 10000 to 30000 nM; 6: 554 nM; 7: 100 to 1000 nM

Look at each compound and report its IC50.
1. C=CC(=O)Nc1ccc2c(N3CC[C@@H](Nc4ncc(C#N)cn4)C3)nnc(N3CC(C#N)C3)c2c1
2. C=CC(=O)N1CCc2cc(C(=O)N3CC[C@@H](Nc4ncc(Cl)cn4)C3)ccc21
3. Clc1cccc2nc(CNc3nc(N4CCOCC4)nc4c(-c5ccsc5)cnn34)[nH]c12

Completion:
≤ 100 nM
< 100 nM
377 nM

For every item in the list below, what is its measured IC50?
1. N#CN1CCC=C(c2ccc(CC(=O)Nc3cc(C4CC4)[nH]n3)cn2)C1
2. C=CC(=O)Nc1ccc(C(=O)N2CC[C@@H](Nc3nccc(OC4CCCC4)n3)C2)cc1 (stereo in doubt)

Completion:
1: 6 nM; 2: 100 to 1000 nM

Could I get IC50 for every one of these entries?
1. C=CC(=O)Nc1ccc(C(=O)N2CC[C@@H](Nc3ncc(Cl)c(OC)n3)C2)cc1N1CCCCC1
2. Fc1cc2nc(CNc3nc(N4CCOCC4)nc4c(-c5ccsc5)cnn34)[nH]c2cc1F

Completion:
1: < 100 nM; 2: 196 nM

Data point: `C=CC(=O)Nc1ccc(C(=O)N2CC[C@@H](Nc3ncc(Cl)c(OC)n3)C2)cc1OC` ; IC50 = < 100 nM

====

A compilation of published pIC50 results with Cyclin-dependent kinase 12 (Homo sapiens, UniProt Q9NYV4).
pIC50: −log10 of the molar value.

Report pIC50 for every entry below.
1. C=CC(=O)Nc1ccc2c(N3CC[C@@H](Nc4ncc(C#N)cn4)C3)nc(N3CCN(C)CC3)nc2c1
2. FC(F)n1cc(-c2cnn3c(NCc4nc5cc(Cl)c(Cl)cc5[nH]4)nc(N4CCC(F)(F)CC4)nc23)cn1
3. C=CC(=O)Nc1ccc2c(N3CC[C@@H](Nc4ncc(Br)cn4)C3)nnc(N3CCC3)c2c1
4. C=CC(=O)Nc1ccc2c(N3CC[C@@H](Nc4ncc(Br)cn4)C3)nccc2c1
5. Clc1cc2nc(CNc3nc(N4CCOCC4)nc4c(-c5ccsc5)cnn34)[nH]c2cc1Cl
6. C=CC(=O)NC1CC=C(c2ccc(C(C)C(=O)Nc3cc(C4CC4)[nH]n3)cc2)CC1 (centres unmarked)
7. C=CC(=O)Nc1ccc(C(=O)N2CC[C@@H](Nc3ncc4ccc(OC)cc4n3)C2)cc1
8. C=CC(=O)Nc1ccc2c(N3CC[C@@H](Nc4ncc(Cl)cn4)C3)ncnc2c1

Completion:
1. ≥ 7.00
2. < 5.00
3. ≥ 7.00
4. ≥ 7.00
5. 5.62
6. 6.42
7. > 7.00
8. 6.00 to 7.00

====

Record: compiled IC50 on Cyclin-dependent kinase 12 (Homo sapiens, UniProt Q9NYV4) from multiple reports.

Solved entries (count: 3):
C=CC(=O)Nc1ccc2c(N3CC[C@@H](Nc4ncc(Br)c(OC)n4)C3)ncnc2c1 ≤ 0.1 µM
C=CC(=O)Nc1ccc(C(=O)N2CC[C@@H](Nc3ncc(Cl)c(OCC(F)(F)F)n3)C2)cc1 < 0.1 µM
CCC(=O)Nc1ccc(C(=O)N2CC[C@@H](Nc3ncc(Br)c(OC)n3)C2)cc1 < 0.1 µM

Batch request: IC50 for each of the following compounds.
1. C=CC(=O)N1CCOc2cc(C(=O)N3CC[C@@H](Nc4ncc(Cl)c(OC)n4)C3)ccc21
2. OC[C@@H]1COCCN1c1nc(NCc2nc3cc(Cl)c(Cl)cc3[nH]2)n2ncc(-c3cnn(C(F)F)c3)c2n1
3. C[C@H](C(=O)Nc1cc(C2CC2)[nH]n1)c1ccc(C2=CCN(C(=O)/C=C/CN3CCOCC3)CC2)cc1
4. C/C=C/C(=O)Nc1ccc2c(N3CC[C@@H](Nc4ncc(Br)cn4)C3)nccc2c1

Completion:
1: 0.1 to 1 µM; 2: 4.05 µM; 3: 0.646 µM; 4: ≤ 0.1 µM

Record summary for `C=CC(=O)Nc1ccc2c(N3CC[C@@H](Nc4ncc(Cl)c(OCC)n4)C3)ncnc2c1` : reported IC50 = ≤ 0.1 µM

====

# literature pull: Cyclin-dependent kinase 12 (Homo sapiens) pIC50
pIC50: −log10 of the molar value.

C=CC(=O)Nc1ccc(C(=O)N2CC[C@@H](Nc3ncc(Cl)c(OC)n3)C2)cc1 > 7.00
N#Cc1cc2cnc(Nc3ccc4c(c3)CCNC4)nc2n(C2CCCC2)c1=O < 5.00
CN1CCN(c2nc(NCc3nc4cccc(Cl)c4[nH]3)n3ncc(-c4ccsc4)c3n2)CC1 5.81

Note to self: pIC50 recorded for `C=CC(=O)Nc1ccc2c(N3CC[C@@H](Nc4ncc(Cl)c(NC)n4)C3)ncnc2c1` was ≥ 7.00
